// provenance: patent US20220127350A1

molecular target: human IL-17A (human, UniProt Q16552 24-155, limits assumed); test: cell-based or functional assay
Measurement label: IC50 in HT-29 assay, GRO-α secretion (ng/mL)

* A1 (humanized anti-IL-17A scFv, CDR graft of 27-07-G02) (scFv, VL-linker-VH; also called 27-07-G02-sc01; 27_07_G02_sc01) scFv: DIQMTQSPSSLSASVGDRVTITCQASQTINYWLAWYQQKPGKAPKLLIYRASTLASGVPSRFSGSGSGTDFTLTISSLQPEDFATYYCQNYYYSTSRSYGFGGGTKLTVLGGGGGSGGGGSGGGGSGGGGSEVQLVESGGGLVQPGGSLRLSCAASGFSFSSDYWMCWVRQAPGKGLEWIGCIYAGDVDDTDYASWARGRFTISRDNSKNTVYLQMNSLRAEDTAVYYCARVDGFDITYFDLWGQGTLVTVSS | 0.2
